For each record, write down the corresponding EC50.
Test system: MDA-MB-231 cells
test: Quantitative phase imaging (QPI) growth response, MDA-MB-231
Type: cell-based
condition set: Homo sapiens, MDA-MB-231, MDA-MB-231 cell line; EC50 of the standard deviation; read-out: EC50, SD (converted)
Output spec: scalar in nM, unitless text.

Would you kindly share the measured EC50 for `CC(=O)O[C@@]12CO[C@@H]1C[C@H](O)[C@@]1(C)C(=O)[C@H](O)C3=C(C)[C@@H](OC(=O)[C@H](O)[C@@H](NC(=O)OC(C)(C)C)c4ccccc4)C[C@@](O)([C@@H](OC(=O)c4ccccc4)[C@H]21)C3(C)C` ? 1.11

Moving on to the next molecule: `COc1cccc2c1C(=O)c1c(O)c3c(c(O)c1C2=O)C[C@@](O)(C(=O)CO)C[C@@H]3O[C@H]1C[C@H](N)[C@H](O)[C@H](C)O1` 549

Moving on to the next molecule: `CC[C@]1(O)C[C@@H]2CN(CCc3c([nH]c4ccccc34)[C@@](C(=O)OC)(c3cc4c(cc3OC)N(C)[C@H]3[C@@](O)(C(=O)OC)[C@H](OC(C)=O)[C@]5(CC)C=CCN6CC[C@]43[C@@H]65)C2)C1` 14900

Moving on to the next molecule: C[C@]12CC[C@@H]3c4ccc(O)cc4C[C@@H](CCCCCCCCC[S+]([O-])CCCC(F)(F)C(F)(F)F)[C@H]3[C@@H]1CC[C@@H]2O (stereo partly shown) 3320

###

System: MDA-MB-231 cells
test: Quantitative phase imaging (QPI) growth response, MDA-MB-231
Format: cell-based
condition set: Homo sapiens, MDA-MB-231, MDA-MB-231 cell line; QPI growth rate; read-out: EC50, QPI
recorded endpoint: pEC50
pEC50 is a log-scale quantity: -log10 of the concentration expressed in molar.

Would you kindly share the measured pEC50 for `COc1cccc2c1C(=O)c1c(O)c3c(c(O)c1C2=O)C[C@@](O)(C(=O)CO)C[C@@H]3O[C@H]1C[C@H](N)[C@H](O)[C@H](C)O1` ? 7.00

Moving on to the next compound: `CC[C@]1(O)C[C@@H]2CN(CCc3c([nH]c4ccccc34)[C@@](C(=O)OC)(c3cc4c(cc3OC)N(C)[C@H]3[C@@](O)(C(=O)OC)[C@H](OC(C)=O)[C@]5(CC)C=CCN6CC[C@]43[C@@H]65)C2)C1` 6.40

Moving on to the next compound: C[C@]12CC[C@@H]3c4ccc(O)cc4C[C@@H](CCCCCCCCC[S+]([O-])CCCC(F)(F)C(F)(F)F)[C@H]3[C@@H]1CC[C@@H]2O (stereo partly shown) 4.94

Moving on to the next compound: `O=c1[nH]cc(F)c(=O)[nH]1` 3.93

###

System: BT-474 cells
test: cells
condition set: BT-474 cell line; depth of response, QPI
recorded endpoint: DoR QPI
Write the number on its own, no unit after it.

Would you kindly share the measured DoR QPI for `CC(=O)c1c(C)c2cnc(Nc3ccc(N4CCNCC4)cn3)nc2n(C2CCCC2)c1=O` ? 1.6

Moving on to the next compound: `CS(=O)(=O)CCNCc1ccc(-c2ccc3ncnc(Nc4ccc(OCc5cccc(F)c5)c(Cl)c4)c3c2)o1` 1.4

Moving on to the next compound: CCC(=C(c1ccc(O)cc1)c1ccc(OCCN(C)C)cc1)c1ccccc1 [4HT, 4-hydroxy-Tamoxifen] 2.5

Entry source: patent US20250052985A1
